- subject of test: PqsE(WT) (Pseudomonas aeruginosa)
- Construct: 6xHis (N)
- test description: biochemical
IC50 reference
I only need the number, in µM, no unit after it.

                 line_notation                    subject_of_test  observed_property   u  experimental_result
0  O=C(CCCCCCC(=O)Nc1ccccc1)NO  PqsE(WT) (Pseudomonas aeruginosa)               IC50  µM                  1.2

Turning now to a further record.
INPUT: What value of IC50 has been reported for the following compound? `CN1CCc2cccc3c2[C@H]1Cc1ccc(O)c(O)c1-3`
OUTPUT: 18
